The reported measurements were obtained from PubChem BioAssay (NCI).

system: PC-3 prostate; assay: NCI tumour cell line growth inhibition, 48 h
Some compounds, each annotated with its measured TGI.

| Compound | TGI |
| --- | --- |
| CC1CCCc2c(C#N)c(N)nc(-c3ccc(Cl)cc3)c21 (stereo not drawn) | 42.9 µM |
| O=c1ccc2cc(O)c(O)cc2o1 | > 100 µM |
| N#Cc1c(N)oc(-c2cccc([N+](=O)[O-])c2)c1C#N | > 100 µM |

====

Some compounds, each annotated with its measured TGI.
tested on: U251 CNS; assay: NCI tumour cell line growth inhibition, 48 h

| Compound | TGI |
| --- | --- |
| COc1ccc(-c2n[nH]nc2-c2cc(OC)c3c(c2OC)OCO3)cc1 | 11 µM |
| COc1ccc(NC(=O)/C(=N\NC(=O)C[n+]2ccccc2)c2c(O)c3ccc(O)cc3oc2=O)c([N+](=O)[O-])c1 | > 100 µM |
| C=CC(=O)N(C)[C@H]1C[C@H]2OC(C)(C1OC)n1c3ccccc3c3c4c(c5c6ccccc6n2c5c31)C(=O)NC4 (stereo not given in full) | 0.913 µM |
| CC1(C)CS(=O)(=O)CC(C)(C)C(=N/N)/C1=N\N | > 100 µM |
| C#CCOCC12C=CC(O1)C1C(=O)N(C)C(=O)C12 (stereo not given) | > 100 µM |
| N#C/C(=C\c1ccccc1)C(=O)Nc1nnc(-c2ccccc2)o1 | > 100 µM |
| CN(C)CCCN1c2ccccc2CCc2ccc(Cl)cc21 | 14.7 µM |
| O=C(O)C1(P(=O)(O)O)CC1 | > 100 µM |
| CN(CCO)c1nc2c(c(=O)[nH]1)CCC2 | > 100 µM |
| COc1cc(OC)c(/C=C2\N=C(C)N(Nc3nnc(NN4C(=O)/C(=C/c5c(OC)cc(OC)cc5OC)N=C4C)c4ccccc34)C2=O)c(OC)c1 | > 100 µM |
